# Species: Homo sapiens
# PROTOCOL_TEXT: Selectivity ratio of Ki for human 5-HT1A receptor to Ki for human 5-HT7b receptor
ATTRIBUTE_MEASURED: Ratio Ki

COMPOUND	OBSERVED_RESULT
O=S(=O)(NCC1CCN(CCOc2ccccc2-c2ccccc2)CC1)c1ccc(Cl)s1	5
O=S(=O)(NC1CCN(CCOc2ccccc2)CC1)c1cccs1	2
CC(C)c1ccccc1OCCN1CCC(CNS(=O)(=O)c2ccc(F)cc2)CC1	2
CC(C)c1ccccc1OCCN1CCC(NS(=O)(=O)c2cccc(Cl)c2)C1 (stereo not given)	8

a. O=S(=O)(NC1CCN(CCOc2ccccc2-c2ccccc2)C1)c1cccs1 (stereo not given)
b. CC(C)c1ccccc1OCCN1CCC(CNS(=O)(=O)c2cccc(Cl)c2)CC1
c. O=S(=O)(NC1CCN(CCOc2ccccc2-c2ccccc2)C1)c1ccc(F)c(F)c1 (stereo not given)
q: Sort the 3 compounds by Ratio Ki; largest first, smallest last. Please respond with the labels ordered as the question requires.
a: c, a, b
(c: 13, a: 5, b: 2)
